This collection of values is drawn from patent US9340577B2.

# assay.target: DR7 (DRB1*0701) (Homo sapiens, UniProt P01903+P01911, A100R/A102G/A103Q/D57E/D86V/E43K/F76Y/K127E/L162R/M171V/P40G/Q125H/Q99D/R33Q/R42Y/R54Q/S133A/S66F/T210M/V115G/Y107V/Y59L/Y89S)
# assay.procedure: biochemical
# Format: binding
No end group written: not given here.
pIC50: recorded values
// pIC50 is dimensionless: -log10 of concentration (M)

Examples from the recorded data:
INSERT INTO results (sequence_entry, measured_value) VALUES
  ('RLTVAKLMSNLLSIP [Peptide 89.0065]', 7.35),
  ('VDFIDTQLSICEQAE [Peptide 89.0078]', 6.37),
  ('EVQIALESLSTTIYN [Peptide 90.0231]', 7.49);

Task: Sample DCKWGVLILALLRYK [Peptide 89.0026] — what was its pIC50?
Output: 5.13
